experiment_description: Induction of apoptosis in human M9-ENL1 cells assessed as cell death after 24 hrs by Annexin V/PI or 7-AAD staining based flow cytometry
Assay type: functional
condition_details: M9-ENL1, 24 h, read-out: LC50 (the source's name)
// reported CC50 per item
quantity_measured: CC50

mol	endpoint_value
C=C1C(=O)O[C@H]2[C@H]1CC/C(COC(=O)CCC(=O)NCCCNC(=O)CCC(=O)OC/C1=C/CC[C@@]3(C)O[C@H]3[C@H]3OC(=O)C(=C)[C@@H]3CC1)=C\CC[C@@]1(C)O[C@@H]21	10 µM
C=C1C(=O)O[C@H]2[C@H]1CC/C(COC(=O)CCC(=O)NCCCCCCNC(=O)CCC(=O)OC/C1=C/CC[C@@]3(C)O[C@H]3[C@H]3OC(=O)C(=C)[C@@H]3CC1)=C\CC[C@@]1(C)O[C@@H]21	21 µM
C=C1C(=O)O[C@H]2[C@H]1CC/C(COC(=O)CCC(=O)NCCCCCCCCCNC(=O)CCC(=O)OC/C1=C/CC[C@@]3(C)O[C@H]3[C@H]3OC(=O)C(=C)[C@@H]3CC1)=C\CC[C@@]1(C)O[C@@H]21	6.5 µM
C=C1C(=O)O[C@H]2[C@H]1CC/C(COC(=O)CCC(=O)Nc1cccc(N)n1)=C\CC[C@@]1(C)O[C@@H]21	12 µM
C=C1C(=O)O[C@H]2[C@H]1CC/C(COC(=O)CCC(=O)NCCCCCCCNC(=O)CCC(=O)OC/C1=C/CC[C@@]3(C)O[C@H]3[C@H]3OC(=O)C(=C)[C@@H]3CC1)=C\CC[C@@]1(C)O[C@@H]21	15 µM
C=C1C(=O)O[C@H]2[C@H]1CC/C(COC(=O)CCC(=O)NCCCCCCCCNC(=O)CCC(=O)OC/C1=C/CC[C@@]3(C)O[C@H]3[C@H]3OC(=O)C(=C)[C@@H]3CC1)=C\CC[C@@]1(C)O[C@@H]21	11 µM
C=C1C(=O)O[C@H]2[C@H]1CC/C(COC(=O)CCC(=O)N1CCC(C)CC1)=C\CC[C@@]1(C)O[C@@H]21	4.1 µM
C=C1C(=O)O[C@H]2[C@H]1CC/C(COC(=O)CCC(=O)NCc1ccccn1)=C\CC[C@@]1(C)O[C@@H]21	14 µM
C=C1C(=O)O[C@H]2[C@H]1CC/C(COC(=O)CCC(=O)NCCCCCCCCCCNC(=O)CCC(=O)OC/C1=C/CC[C@@]3(C)O[C@H]3[C@H]3OC(=O)C(=C)[C@@H]3CC1)=C\CC[C@@]1(C)O[C@@H]21	12 µM
C=C1C(=O)O[C@H]2[C@H]1CC/C(COC(=O)CCC(=O)N1CCC(F)(F)CC1)=C\CC[C@@]1(C)O[C@@H]21	5.2 µM
C=C1C(=O)O[C@H]2[C@H]1CC/C(COC(=O)CCC(=O)NCc1ccc(Cl)nc1)=C\CC[C@@]1(C)O[C@@H]21	14 µM
C=C1C(=O)O[C@H]2[C@H]1CC/C(COC(=O)CCC(=O)NCCN1CCOCC1)=C\CC[C@@]1(C)O[C@@H]21	20 µM
C=C1C(=O)O[C@H]2[C@H]1CC/C(COC(=O)CCC(=O)NCCCCNC(=O)CCC(=O)OC/C1=C/CC[C@@]3(C)O[C@H]3[C@H]3OC(=O)C(=C)[C@@H]3CC1)=C\CC[C@@]1(C)O[C@@H]21	19 µM
C=C1C(=O)O[C@H]2[C@H]1CC/C(COC(=O)CCC(=O)NCCCCCNC(=O)CCC(=O)OC/C1=C/CC[C@@]3(C)O[C@H]3[C@H]3OC(=O)C(=C)[C@@H]3CC1)=C\CC[C@@]1(C)O[C@@H]21	19 µM

* * *

experiment_description: Induction of apoptosis in human M9-ENL1 cells assessed as cell death after 24 hrs by Annexin V/PI or 7-AAD staining based flow cytometry
Type: functional
condition_details: M9-ENL1, 24 h, read-out: LC50 (the source's name)
quantity_measured: CC50 (µM)

In [3]: df
Out[3]:
                                   compound  measure_unit  result_comparator  endpoint_value
0  C=C1C(=O)O[C@H]2[C@H]1CC/C(COC(=O)CCC(=O)NCCc1ccccn1)=C\CC[C@@]1(C)O[C@@H]21            µM                  =            13.5
1  C=C1C(=O)O[C@H]2[C@H]1CC/C(COC(=O)CCC(=O)Nc1nc(N)n[nH]1)=C\CC[C@@]1(C)O[C@@H]21            µM                  =              60
2  C=C1C(=O)O[C@@H]2C3O[C@]3(C)CC/C=C(\C)CC[C@@H]12 (some centres not stated)            µM                  =             7.5
3  C=C1C(=O)O[C@H]2[C@H]1CC/C(COC(=O)CCC(=O)Nc1n[nH]c(SC)n1)=C\CC[C@@]1(C)O[C@@H]21            µM                  =              13
4  C=C1C(=O)O[C@H]2[C@H]1CC/C(COC(=O)CCC(=O)NCCCn1ccnc1)=C\CC[C@@]1(C)O[C@@H]21            µM                  >              20
5  C=C1C(=O)O[C@H]2[C@H]1CC/C(COC(=O)CCC(=O)NCCCN1CCOCC1)=C\CC[C@@]1(C)O[C@@H]21            µM                  =              14
6  C=C1C(=O)O[C@H]2[C@H]1CC/C(COC(=O)CCC(=O)N1CCN(C)CC1)=C\CC[C@@]1(C)O[C@@H]21            µM                  =             8.1
